Target: T1, human CTGF (Homo sapiens, UniProt P29279)
T1 construct: purchased Creative Biomart
T1 sequence (P29279 with tags, fused parts or gaps H83D): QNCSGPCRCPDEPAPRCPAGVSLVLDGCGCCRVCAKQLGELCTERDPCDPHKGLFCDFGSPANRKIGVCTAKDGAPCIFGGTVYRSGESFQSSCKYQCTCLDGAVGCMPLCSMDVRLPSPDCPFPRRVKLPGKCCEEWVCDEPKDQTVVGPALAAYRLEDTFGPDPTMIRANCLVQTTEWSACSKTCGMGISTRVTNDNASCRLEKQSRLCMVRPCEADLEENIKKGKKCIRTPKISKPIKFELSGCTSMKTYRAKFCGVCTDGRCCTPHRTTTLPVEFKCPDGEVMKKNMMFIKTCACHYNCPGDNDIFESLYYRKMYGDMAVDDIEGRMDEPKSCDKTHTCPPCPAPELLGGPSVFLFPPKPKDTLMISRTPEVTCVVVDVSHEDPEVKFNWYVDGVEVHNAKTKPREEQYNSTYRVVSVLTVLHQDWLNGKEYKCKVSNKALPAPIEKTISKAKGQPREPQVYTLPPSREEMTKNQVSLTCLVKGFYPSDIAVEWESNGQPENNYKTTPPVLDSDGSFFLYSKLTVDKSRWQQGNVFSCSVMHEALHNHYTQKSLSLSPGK
Assay: SPR binding kinetics and affinity, human CTGF
Conditions: 25° C., 1:1 binding model
readout_label: human CTGF koff (s⁻¹)
Give bare numbers, in s⁻¹.

Example results:
SEQ ID NO: 10: optimized CTGF-binding hNGAL lipocalin mutein (protein, lipocalin mutein) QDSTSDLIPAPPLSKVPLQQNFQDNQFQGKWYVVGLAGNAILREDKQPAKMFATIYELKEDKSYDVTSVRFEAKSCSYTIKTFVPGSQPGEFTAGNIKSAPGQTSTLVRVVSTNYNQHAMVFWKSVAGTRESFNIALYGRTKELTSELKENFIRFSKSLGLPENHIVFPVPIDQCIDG
2.23e-06
SEQ ID NO: 8: optimized CTGF-binding hNGAL lipocalin mutein (protein, lipocalin mutein) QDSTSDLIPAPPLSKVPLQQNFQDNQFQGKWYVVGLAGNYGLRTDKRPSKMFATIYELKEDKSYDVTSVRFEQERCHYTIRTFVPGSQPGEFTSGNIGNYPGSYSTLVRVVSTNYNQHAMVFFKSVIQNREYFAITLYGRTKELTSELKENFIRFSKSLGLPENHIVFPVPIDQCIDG
0.000114

Enquiry: Name the recorded human CTGF koff for SEQ ID NO: 13: optimized CTGF-binding hNGAL lipocalin mutein (protein, lipocalin mutein) QDSTSDLIPAPPLSKVPLQQNFQDNQFQGKWYVVGLAGNAILREDKYPAKMFATIYELKEDKSYDVTSVRFENKSCVYTSKTFVPGSQPGEFTTGNIKSAPGQTSTLVRVVSTNYNQHAMVFFKHVSQNREFFVITLYGRTKELTSELKENFIRFSKSLGLPENHIVFPVPIDQCIDG .
Return: 2.51e-06
